Assay: Viability assay (LDH release), HUVEC
Format: cell-based, human
Conditions: human
Experimental endpoint: viability at 200 µg/mL (%)
Value expressed in %; do not type the unit.

Substance smiles: O=c1c2cc(Cl)ccc2[nH]c(=S)n1-c1ccc([N+](=O)[O-])cc1
Observed measurement: 99.7

Below: the item to evaluate.
Q: Provide one value: measured viability at 200 µg/mL of `COc1cc2[nH]c(=S)n(-c3cccc(C(F)(F)F)c3)c(=O)c2cc1OC`
A: 99.7

====

Documented Fold change of LDHA inhibition as compared to 0.1 mg/mL across a set of compounds
Target: purified recombinant human LDHA protein (Homo sapiens)
Assay: Lactate dehydrogenase A (LDHA) inhibitory assay
Type: biochemical
Details: % inhibition at 0.200 mg/mL divided by % inhibition at 0.100 mg/mL
Value expressed in fold; do not type the unit.

Compound: O=c1c2cc(Br)ccc2[nH]c(=S)n1-c1ccc(C(F)(F)F)cc1 [Compound 3e]
Target system: purified recombinant human LDHA protein (Homo sapiens)
Unit annotation: fold
Observed measurement: 1.62
//
Compound: O=c1c2cc(Cl)ccc2[nH]c(=S)n1-c1ccc([N+](=O)[O-])cc1 [Compound 3f]
Target system: purified recombinant human LDHA protein (Homo sapiens)
Unit annotation: fold
Observed measurement: 1.59
//
Compound: COc1ccc(Br)c(CSc2nc3ccc(Br)cc3c(=O)n2-c2ccc(C(F)(F)F)cc2)c1 [Compound 5e]
Target system: purified recombinant human LDHA protein (Homo sapiens)
Unit annotation: fold
Observed measurement: 1.29
//
Compound: COc1cc2nc(SCc3ccc(Cl)cc3)n(-c3ccc([N+](=O)[O-])cc3)c(=O)c2cc1OC [Compound 5h]
Target system: purified recombinant human LDHA protein (Homo sapiens)
Unit annotation: fold
Observed measurement: 1.42
//
Compound: O=c1c2cc(Cl)ccc2[nH]c(=S)n1-c1cccc(C(F)(F)F)c1 [Compound 3a]
Target system: purified recombinant human LDHA protein (Homo sapiens)
Unit annotation: fold
Observed measurement: 1.84
//
Compound: O=c1c2cc(Cl)ccc2nc(SCc2ccccc2F)n1-c1cccc(C(F)(F)F)c1 [Compound 5a]
Target system: purified recombinant human LDHA protein (Homo sapiens)
Unit annotation: fold
Observed measurement: 1.62

Below: the item to evaluate.
Q: Provide one value: measured Fold change of LDHA inhibition as compared to 0.1 mg/mL of COc1cc2nc(SCc3cccc([N+](=O)[O-])c3)n(-c3cccc(C(F)(F)F)c3)c(=O)c2cc1OC [Compound 5c]
A: 1.67

====

Documented Mean IC50 α-Amylase (AA) across a set of compounds
Molecular target: α-amylase
Test: In vitro α-amylase (AA) inhibition assay
Settings: mean ± SD of three replicates
Value expressed in µg/mL; do not type the unit.

Substance smiles: O=c1c2cc(Br)ccc2nc(SCc2cccc([N+](=O)[O-])c2)n1-c1ccc([N+](=O)[O-])cc1
Observed measurement: 339.000

Q: Provide one value: measured Mean IC50 α-Amylase (AA) of `O=c1c2cc(Cl)ccc2nc(SCc2ccccc2F)n1-c1cccc(C(F)(F)F)c1`
A: 86.667

Q: Provide one value: measured Mean IC50 α-Amylase (AA) of `O=c1c2cc(Br)ccc2[nH]c(=S)n1-c1ccc(C(F)(F)F)cc1`
A: 252.00

Q: Provide one value: measured Mean IC50 α-Amylase (AA) of `O=c1c2cc(Cl)ccc2[nH]c(=S)n1-c1ccc([N+](=O)[O-])cc1`
A: 111.667

Q: Provide one value: measured Mean IC50 α-Amylase (AA) of `O=c1c2cc(Cl)ccc2[nH]c(=S)n1-c1cccc(C(F)(F)F)c1`
A: 124.333

Q: Provide one value: measured Mean IC50 α-Amylase (AA) of `O=c1c2cc(Cl)ccc2[nH]c(=S)n1-c1ccc(C(F)(F)F)cc1`
A: 335.667

Q: Provide one value: measured Mean IC50 α-Amylase (AA) of `COc1cc2nc(SCc3ccc(Cl)cc3)n(-c3ccc([N+](=O)[O-])cc3)c(=O)c2cc1OC`
A: 117.667

Q: Provide one value: measured Mean IC50 α-Amylase (AA) of `COc1ccc(Br)c(CSc2nc3ccc(Cl)cc3c(=O)n2-c2ccc([N+](=O)[O-])cc2)c1`
A: 106.667

Q: Provide one value: measured Mean IC50 α-Amylase (AA) of `COc1cc2[nH]c(=S)n(-c3ccc([N+](=O)[O-])cc3)c(=O)c2cc1OC`
A: 122.000

Q: Provide one value: measured Mean IC50 α-Amylase (AA) of `COc1cc2nc(SCc3cccc([N+](=O)[O-])c3)n(-c3cccc(C(F)(F)F)c3)c(=O)c2cc1OC`
A: 197.333

Q: Provide one value: measured Mean IC50 α-Amylase (AA) of `O=c1c2cc(Cl)ccc2nc(SCc2ccc(Cl)cc2)n1-c1ccc(C(F)(F)F)cc1`
A: 181.667

Q: Provide one value: measured Mean IC50 α-Amylase (AA) of `COc1cc2[nH]c(=S)n(-c3cccc(C(F)(F)F)c3)c(=O)c2cc1OC`
A: 92.000

Q: Provide one value: measured Mean IC50 α-Amylase (AA) of `O=c1c2cc(Br)ccc2[nH]c(=S)n1-c1ccc([N+](=O)[O-])cc1`
A: 179.333

Q: Provide one value: measured Mean IC50 α-Amylase (AA) of `O=c1c2cc(Br)ccc2nc(SCc2ccc(Cl)cc2)n1-c1cccc(C(F)(F)F)c1`
A: 162.000

Q: Provide one value: measured Mean IC50 α-Amylase (AA) of `COc1ccc(Br)c(CSc2nc3ccc(Br)cc3c(=O)n2-c2ccc(C(F)(F)F)cc2)c1`
A: 150.333

====

Documented viability at 200 µg/mL across a set of molecules
Experiment: Viability assay (LDH release), HUVEC
Format: cell-based, human
Conditions: human, human umbilical vein endothelial cells (HUVEC); 200 µg/mL; read-out: Mean % of viable cells ± SD, HUVEC

Q: Provide one value: measured viability at 200 µg/mL of O=c1[nH]cc(F)c(=O)[nH]1 [Compound 5-FU, 5-Fluorouracil, reference compound]
A: 57.3%

Q: Provide one value: measured viability at 200 µg/mL of `O=c1c2cc(Br)ccc2[nH]c(=S)n1-c1ccc([N+](=O)[O-])cc1`
A: 98.7%

Q: Provide one value: measured viability at 200 µg/mL of `O=c1c2cc(Cl)ccc2[nH]c(=S)n1-c1cccc(C(F)(F)F)c1`
A: 97%

Q: Provide one value: measured viability at 200 µg/mL of `O=c1c2cc(Br)ccc2nc(SCc2ccc(Cl)cc2)n1-c1cccc(C(F)(F)F)c1`
A: 96.3%

====

Target: COX-2 (Homo sapiens, UniProt P35354)
Construct: purchased Cayman Chemical Company 701080
Sequence (P35354 18-604): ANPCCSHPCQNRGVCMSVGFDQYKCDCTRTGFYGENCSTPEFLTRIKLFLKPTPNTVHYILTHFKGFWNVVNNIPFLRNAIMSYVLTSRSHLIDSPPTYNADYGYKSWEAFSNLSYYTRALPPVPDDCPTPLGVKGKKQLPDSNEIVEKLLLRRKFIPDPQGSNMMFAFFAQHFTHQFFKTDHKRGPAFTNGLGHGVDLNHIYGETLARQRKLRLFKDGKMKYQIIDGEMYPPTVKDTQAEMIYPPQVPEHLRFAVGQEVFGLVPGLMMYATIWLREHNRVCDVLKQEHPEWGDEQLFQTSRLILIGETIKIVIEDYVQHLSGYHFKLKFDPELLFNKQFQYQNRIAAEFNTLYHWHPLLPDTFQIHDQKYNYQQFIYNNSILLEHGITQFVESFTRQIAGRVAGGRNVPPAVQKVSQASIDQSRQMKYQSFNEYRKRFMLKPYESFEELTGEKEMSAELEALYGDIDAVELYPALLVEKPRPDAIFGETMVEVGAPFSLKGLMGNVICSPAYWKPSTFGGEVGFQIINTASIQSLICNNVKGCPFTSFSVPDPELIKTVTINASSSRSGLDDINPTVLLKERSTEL
Experiment: COX-2 inhibitory screening assay (Cayman kit)
Type: biochemical
Conditions: % inhibition at 0.200 mg/mL divided by % inhibition at 0.100 mg/mL
Documented Increase in COX-2 inhibitory efficiency by duplicating the concentration across a set of compounds

Solved entries:
Substance smiles: COc1cc2[nH]c(=S)n(-c3ccc([N+](=O)[O-])cc3)c(=O)c2cc1OC
Observed measurement: 1.900 fold
--
Substance smiles: O=c1c2cc(Br)ccc2nc(SCc2ccc(Cl)cc2)n1-c1cccc(C(F)(F)F)c1
Observed measurement: 2.11 fold
--
Substance smiles: O=c1c2cc(Br)ccc2[nH]c(=S)n1-c1ccc([N+](=O)[O-])cc1
Observed measurement: 1.65 fold
--
Substance smiles: O=c1c2cc(Cl)ccc2nc(SCc2ccc(Cl)cc2)n1-c1ccc(C(F)(F)F)cc1
Observed measurement: 1.68 fold
--
Substance smiles: COc1ccc(Br)c(CSc2nc3ccc(Cl)cc3c(=O)n2-c2ccc([N+](=O)[O-])cc2)c1
Observed measurement: 1.80 fold
--
Substance smiles: COc1cc2[nH]c(=S)n(-c3cccc(C(F)(F)F)c3)c(=O)c2cc1OC
Observed measurement: 2.05 fold
--
Substance smiles: O=c1c2cc(Cl)ccc2[nH]c(=S)n1-c1ccc([N+](=O)[O-])cc1
Observed measurement: 2.34 fold
--
Substance smiles: O=c1c2cc(Br)ccc2[nH]c(=S)n1-c1cccc(C(F)(F)F)c1
Observed measurement: 1.72 fold
--
Substance smiles: O=c1c2cc(Br)ccc2[nH]c(=S)n1-c1ccc(C(F)(F)F)cc1
Observed measurement: 1.50 fold
--
Substance smiles: COc1ccc(Br)c(CSc2nc3ccc(Br)cc3c(=O)n2-c2ccc(C(F)(F)F)cc2)c1
Observed measurement: 1.67 fold

Q: Provide one value: measured Increase in COX-2 inhibitory efficiency by duplicating the concentration of `COc1cc2nc(SCc3cccc([N+](=O)[O-])c3)n(-c3cccc(C(F)(F)F)c3)c(=O)c2cc1OC`
A: 1.41 fold

Q: Provide one value: measured Increase in COX-2 inhibitory efficiency by duplicating the concentration of `COc1cc2nc(SCc3ccc(Cl)cc3)n(-c3ccc([N+](=O)[O-])cc3)c(=O)c2cc1OC`
A: 2.58 fold
